Below is a list of entries, each paired with its recorded IC50 value.
# TARGET_OR_TEST_SYSTEM: HCV NS5B polymerase (Hepatitis C virus genotype 1b)
# PROTOCOL_DETAILS: HCV NS5B polymerase inhibition assay (FlashPlate, [α-33P]GTP incorporation)
# Type: biochemical
# CONDITIONS_USED: read-out: NS5B polymerase inhibition IC50

CC(C)(C)CCn1nc(-c2cccs2)c(O)c(C2=Nc3ccc(NS(C)(=O)=O)cc3[S@](C)(=O)=N2)c1=O | < 100000 nM
CC(C)(C)CC[C@@]1(C)C(=O)C(C2=Nc3ccc(NS(C)(=O)=O)cc3[S@](C)(=O)=N2)=C(O)c2ccccc21 | < 1000 nM

Q: # IC50 lookup, item CC(C)(C)CC[C@@]1(C)C(=O)C(C2=Nc3ccc(NS(C)(=O)=O)cc3[S@@](C)(=O)=N2)=C(O)c2ccccc21
A: < 1000 nM

Q: Look at this compound and give its reported IC50. CC(C)(C)CCn1nc(N2CCCC2)c(O)c(C2=Nc3ccc(NS(C)(=O)=O)cc3S(C)(=O)=N2)c1=O (stereo not drawn)
A: < 1000 nM

Q: Quick one: IC50 of CC(C)(C)CCn1nc(-c2cccs2)c(O)c(C2=Nc3ccc(NS(C)(=O)=O)cc3S(C)(=O)=N2)c1=O (racemic) ?
A: < 1000 nM

Q: Param item = CS(=O)(=O)Nc1ccc2c(c1)S(C)(=O)=NC(C1=C(O)[C@@H]3[C@H]4CC[C@H](C4)[C@@H]3N(Cc3ccc(F)cc3)C1=O)=N2 (stereo partly drawn) ; retrieve measured IC50.
A: < 1000 nM

Q: Find the recorded IC50 belonging to CC[C@H]1CC(O)=C(C2=Nc3ccc(NS(C)(=O)=O)cc3S(C)(=O)=N2)C(=O)N1Cc1ccc(F)cc1 (mixture of isomers) and report it.
A: < 1000 nM

Q: IC50 for CS1(=O)=NC(C2=C(O)[C@@H]3CCC[C@@H]3N(Cc3ccc(F)cc3)C2=O)=Nc2ccccc21 (stereo in doubt) ?
A: < 100000 nM

Q: Quick one: IC50 for CC(C)(C)CCn1nc(-c2cccs2)c(O)c(C2=Nc3ccc(NS(C)(=O)=O)cc3[S@@](C)(=O)=N2)c1=O ?
A: < 1000 nM

Q: Reported IC50, compound CC(C)(C)CC[C@@]1(C)C(=O)C(C2=Nc3ccc(NS(C)(=O)=O)cc3S(C)(=O)=N2)=C(O)c2ccccc21 (mixture of isomers) : ____
A: < 1000 nM

Q: I am curious: what IC50 value has been reported for CS(=O)(=O)Nc1ccc2c(c1)S(C)(=O)=NC(C1=C(O)[C@H]3[C@H]([C@@H]4CC[C@H]3O4)N(Cc3ccc(F)cc3)C1=O)=N2 (mixture of isomers) ?
A: < 1000 nM

Q: Can you look up the measured IC50 of CC(C)(C)[C@H]1C(O)=C(C2=Nc3ccc(NS(C)(=O)=O)cc3S(C)(=O)=N2)C(=O)N1Cc1ccc(F)c(Cl)c1 (stereo in doubt) for me?
A: < 1000 nM

====

Below, each entry is listed alongside its reported pIC50.
# TARGET_OR_TEST_SYSTEM: HCV NS5B polymerase (Hepatitis C virus genotype 1b, UniProt Q9WMX2)
# Sequence (Q9WMX2 2420-3010): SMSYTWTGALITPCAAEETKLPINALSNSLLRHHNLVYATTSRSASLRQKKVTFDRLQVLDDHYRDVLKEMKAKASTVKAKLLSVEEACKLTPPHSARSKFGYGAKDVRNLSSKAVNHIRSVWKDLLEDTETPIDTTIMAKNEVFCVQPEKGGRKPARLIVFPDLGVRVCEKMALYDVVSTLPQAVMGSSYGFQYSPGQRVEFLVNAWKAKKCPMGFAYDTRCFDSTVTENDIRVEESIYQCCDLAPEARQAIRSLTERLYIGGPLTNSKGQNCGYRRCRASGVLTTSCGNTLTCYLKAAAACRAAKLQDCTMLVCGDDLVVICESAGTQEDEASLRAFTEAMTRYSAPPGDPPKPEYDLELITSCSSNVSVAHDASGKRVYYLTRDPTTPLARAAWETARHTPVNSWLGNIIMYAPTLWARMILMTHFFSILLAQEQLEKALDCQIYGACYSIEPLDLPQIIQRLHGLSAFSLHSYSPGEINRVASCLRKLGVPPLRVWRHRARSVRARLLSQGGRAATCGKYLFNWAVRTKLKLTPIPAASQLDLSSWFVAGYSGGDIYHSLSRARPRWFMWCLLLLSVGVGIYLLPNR
# PROTOCOL_DETAILS: HCV NS5B polymerase inhibition assay (FlashPlate, [α-33P]GTP incorporation)
# Assay type: biochemical
# CONDITIONS_USED: 20 nM enzyme, 75 min at 28° C.; read-out: NS5B IC50
pIC50: −log10 of the molar value.

Q: Look up pIC50: CS(=O)(=O)Nc1ccc2c(c1)S(C)(=O)=NC(C1=C(O)[C@H]3[C@H]([C@@H]4CC[C@H]3O4)N(Cc3ccc(F)cc3)C1=O)=N2 (mixture of isomers)
A: > 6.00

Q: I'd like to know its pIC50. The molecule in question is CC[C@H]1CC(O)=C(C2=Nc3ccc(NS(C)(=O)=O)cc3S(C)(=O)=N2)C(=O)N1Cc1ccc(F)cc1 (mixture of isomers)
A: > 6.00

Q: Recorded pIC50 of CS(=O)(=O)Nc1ccc2c(c1)S(C)(=O)=NC(C1=C(O)[C@@H]3[C@H]4CC[C@H](C4)[C@@H]3N(Cc3ccc(F)cc3)C1=O)=N2 (stereo partly drawn) , please.
A: > 6.00

Q: I am curious: what pIC50 value has been reported for CC(C)(C)CCn1nc(-c2cccs2)c(O)c(C2=Nc3ccc(NS(C)(=O)=O)cc3[S@](C)(=O)=N2)c1=O ?
A: 4.00 to 6.00

Q: Any idea what its pIC50 is? The molecule is CC(C)(C)CCn1nc(N2CCCC2)c(O)c(C2=Nc3ccc(NS(C)(=O)=O)cc3S(C)(=O)=N2)c1=O (stereo not drawn)
A: > 6.00

Q: Consider the molecule CC(C)(C)CCn1nc(-c2cccs2)c(O)c(C2=Nc3ccc(NS(C)(=O)=O)cc3S(C)(=O)=N2)c1=O (racemic) and give its measured pIC50.
A: > 6.00

Q: Reported pIC50, molecule CC(C)(C)CC[C@@]1(C)C(=O)C(C2=Nc3ccc(NS(C)(=O)=O)cc3S(C)(=O)=N2)=C(O)c2ccccc21 (mixture of isomers) : ____
A: > 6.00

====

# TARGET_OR_TEST_SYSTEM: HCV NS5B polymerase (Hepatitis C virus genotype 1b, UniProt Q9WMX2)
# PROTOCOL_DETAILS: HCV NS5B polymerase inhibition assay (FlashPlate, [α-33P]GTP incorporation)
# Format: biochemical
# CONDITIONS_USED: 20 nM enzyme, 75 min at 28° C.; read-out: NS5B IC50
ENDPOINT: IC50

Below: 4 compounds and their reported IC50.
CC(C)(C)CC[C@@]1(C)C(=O)C(C2=Nc3ccc(NS(C)(=O)=O)cc3[S@@](C)(=O)=N2)=C(O)c2ccccc21 | < 1000 nM
CS1(=O)=NC(C2=C(O)[C@@H]3CCC[C@@H]3N(Cc3ccc(F)cc3)C2=O)=Nc2ccccc21 (stereo in doubt) | 1000 to 100000 nM
CC(C)(C)[C@H]1C(O)=C(C2=Nc3ccc(NS(C)(=O)=O)cc3S(C)(=O)=N2)C(=O)N1Cc1ccc(F)c(Cl)c1 (stereo in doubt) | < 1000 nM
CC(C)(C)CC[C@@]1(C)C(=O)C(C2=Nc3ccc(NS(C)(=O)=O)cc3[S@](C)(=O)=N2)=C(O)c2ccccc21 | < 1000 nM

Lab note: next compound to report on.
Q: Recall the recorded IC50 for CC(C)(C)CCn1nc(-c2cccs2)c(O)c(C2=Nc3ccc(NS(C)(=O)=O)cc3[S@@](C)(=O)=N2)c1=O with HCV NS5B polymerase (Hepatitis C virus genotype 1b, UniProt Q9WMX2) and state it.
A: < 1000 nM
